Recorded interaction score, one value per entry.
Biological target: T1, AP1-AA
T1 chain: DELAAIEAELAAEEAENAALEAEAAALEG
Test: two-hybrid library CCmax;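 note: natural log of median RNA to DNA barcode read ratio; higher means stronger binding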
Details: mean of both orientations
// no unit, no text: just the number

Examples from the recorded data:
>  <binder>
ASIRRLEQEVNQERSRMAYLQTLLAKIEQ [4H_BCR]

>  <interaction score>
-1.92

$$$$
>  <binder>
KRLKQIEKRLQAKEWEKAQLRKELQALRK [4H_APH4]

>  <interaction score>
-1.81

$$$$
>  <binder>
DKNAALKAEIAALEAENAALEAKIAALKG [4H3606-AA]

>  <interaction score>
-1.62

$$$$

// sample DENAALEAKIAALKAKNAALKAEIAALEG [4H1401-AA] , its interaction score was -1.76
